B1: FERM and PDZ domain-containing protein 4, residues 75 to 154; numbered along this chain, Q14CM0 (parent)
chain: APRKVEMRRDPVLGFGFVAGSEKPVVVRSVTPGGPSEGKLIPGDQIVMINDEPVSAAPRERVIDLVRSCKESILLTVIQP

- Variants of: B1
- PROCEDURE_SUMMARY: abundance fitness (aPCA) (normalised: wild type 0, dead -1); higher = more abundant; growth selection in yeast, the domain comes from the species named
- ASSAY_CONDITIONS: Homo sapiens
Binary call on abundance fitness: 1 (yes) from -0.2 upward, 0 (no) beneath that.

Consider the following illustrative entries.
T31H    1 (yes)
R9A    1 (yes)
P58L    0 (no)
R61I    1 (yes)
P80V    0 (no)
V62M    0 (no)
Q79P    1 (yes)
L75P    1 (yes)
C69E    1 (yes)
V12I    1 (yes)

Exam item: Is reported abundance fitness greater than or equal to -0.2 here: S21T
Marked response: 1 (yes)

Exam item: Is reported abundance fitness greater than or equal to -0.2 here: L40R
Marked response: 0 (no)

Exam item: Is reported abundance fitness greater than or equal to -0.2 here: G38M
Marked response: 1 (yes)

Exam item: Is reported abundance fitness greater than or equal to -0.2 here: P53R
Marked response: 1 (yes)

Exam item: Is reported abundance fitness greater than or equal to -0.2 here: S72A
Marked response: 1 (yes)
